Target: Ras farnesyl transferase (Rattus norvegicus, UniProt Q02293+Q04631)
Construct: endogenous in cells; host or cells: Rat2 fibroblasts transformed with H-Ras or with an H-Ras/K-Ras C-terminus fusion
Experiment: In vivo (cellular) inhibitory activity for Ras farnesyl transferase, Rat2 cell line which expresses C-Harvey-Ras protein
Assay type: cell-based
Details: Rat2 cell line expressing C-Harvey-Ras; concentration inhibiting 50% of farnesyl bonding of Ras protein; read-out: H-Ras CIC50
Description: In the present experiment, Rat2 cell line which expresses C-Harvey-Ras protein having transforming activity and Rat2 cell line (Korean patent application No. 97-14409) which is transformed with fused protein of H-Ras substituted with polybasic lysine domain at C-terminus of K-Ras were used. The experiment was performed by the modified Declue's method (Declue. J. E. et al., Cancer Research, 1991, 51, 712). Hereinafter, the experimental method will be described in more detail. […]
propertyLabel: IC50 (nM)
Answer in nM, number only, no unit symbol.

Some entries whose results are on file:
[[record]]
givensmiles = "Cc1ccc(CCn2cncc2Cn2cc(C(=O)N3CCN(C)CC3)c(-c3cccc4ccccc34)c2)cc1"
propertylabel = "IC50"
reportedmeasurement = 25

[[record]]
givensmiles = "COCCN(C)C(=O)c1cn(Cc2cncn2Cc2ccccc2Cl)cc1-c1cccc2ccccc12"
propertylabel = "IC50"
reportedmeasurement = 25

[[record]]
givensmiles = "Cc1ccc(Cn2cncc2Cn2cc(C(=O)N3CCOCC3)c(-c3cccc4ccccc34)c2)cc1"
propertylabel = "IC50"
reportedmeasurement = 20

[[record]]
givensmiles = "COCCN(C)C(=O)c1cn(Cc2cncn2C)cc1-c1cccc2ccccc12"
propertylabel = "IC50"
reportedmeasurement = 15

[[record]]
givensmiles = "CN1CCN(C(=O)c2cn(Cc3cncn3CCc3ccccc3F)cc2-c2cccc3ccccc23)CC1"
propertylabel = "IC50"
reportedmeasurement = 20

[[record]]
givensmiles = "COCCN(C)C(=O)c1cn(Cc2cncn2CCCc2ccccc2)cc1-c1cccc2ccccc12"
propertylabel = "IC50"
reportedmeasurement = 25

[[record]]
givensmiles = "COCCN(C)C(=O)c1cn(Cc2cncn2Cc2ccc3c(c2)OCO3)cc1-c1cccc2ccccc12"
propertylabel = "IC50"
reportedmeasurement = 25

[[record]]
givensmiles = "O=C(c1cn(Cc2cncn2Cc2ccc3c(c2)OCO3)cc1-c1cccc2ccccc12)N1CCOCC1"
propertylabel = "IC50"
reportedmeasurement = 25


stdin: Name the recorded IC50 for COCCN(C)C(=O)c1cn(Cc2cncn2CCc2ccc3ccccc3c2)cc1-c1cccc2ccccc12 .
stdout: 15

stdin: Name the recorded IC50 for COCCN(C)C(=O)c1cn(Cc2cncn2CC2CCN(C(=O)OC)CC2)nc1-c1cccc2ccccc12 .
stdout: 150

stdin: Name the recorded IC50 for COCCN(C)C(=O)c1cn(Cc2cncn2Cc2ccc(Br)cc2)cc1-c1cccc2ccccc12 .
stdout: 30

stdin: Name the recorded IC50 for N#Cc1ccc(Cn2cncc2Cn2cc(C(=O)c3ccccc3)c(-c3cccc4ccccc34)c2)cc1 .
stdout: 200

stdin: Name the recorded IC50 for O=C(c1cn(Cc2cncn2Cc2ccc(Br)cc2)cc1-c1cccc2ccccc12)N1CCOCC1 .
stdout: 15

stdin: Name the recorded IC50 for CN1CCN(C(=O)c2cn(Cc3cncn3Cc3ccc(Br)cc3)cc2-c2cccc3ccccc23)CC1 .
stdout: 6

Where these numbers come from: patent US6472526B1
